- Test system: HT-29 cells
- TEST METHOD NOTES: Hoechst/propidium iodide cell death assay in HT-29
- Format: cell-based, human
- TEST CONDITIONS: Homo sapiens, HT-29, 24 h, 20 µM, 24 h; read-out: Percentage of cell death % 24h HT-29
- Text: A high-content imaging system (PerkinElmer; Operetta CLS), was used to quantify cell death and apoptosis by calculating the number of propidium iodide-positive cells relative to Hoechst-positive cells, and the number of Annexin V-positive cells relative to Hoechst-positive cells, respectively.
Counter-ions that a name gives are not always drawn.
Quick rule for you: cytotoxicity at 20 µM at 4% or higher means YES, lower means NO.

Use these answered entries as a reference point.
INSERT INTO results (compound, classification) VALUES
  ('CN(C)CCCN1c2ccccc2CCc2ccc(Cl)cc21 [Clomipramine HCl]', 'NO'),
  ('CCOc1cc(CC(=O)N[C@@H](CC(C)C)c2ccccc2N2CCCCC2)ccc1C(=O)O [Repaglinide]', 'NO'),
  ('C=C(c1ccc(C(=O)O)cc1)c1cc2c(cc1C)C(C)(C)CCC2(C)C', 'NO'),
  ('CCCSc1nc(N[C@@H]2C[C@H]2c2ccc(F)c(F)c2)c2nnn([C@@H]3C[C@H](OCCO)[C@@H](O)[C@H]3O)c2n1', 'NO'),
  ('O=C1Nc2ccc(Cl)cc2[C@@](C#CC2CC2)(C(F)(F)F)O1', 'YES');

Determine whether measured cytotoxicity at 20 µM meets or exceeds 4% for CC1=C(C(=O)OC(C)C)C(c2cccc([N+](=O)[O-])c2)C(C(=O)OC2CN(C(c3ccccc3)c3ccccc3)C2)=C(N)N1 (centres unmarked) YES

Determine whether measured cytotoxicity at 20 µM meets or exceeds 4% for COc1cc2c(Oc3ccc4[nH]c(C)cc4c3F)ncnc2cc1OCCCN1CCCC1 YES

* * *

Record form. Attribute: inhibition at 20 µM. Fill in for each entry.
- EXPERIMENTAL SYSTEM: 14-3-3ζ:BAD-112-136F interactions (Homo sapiens)
- Construct: expressed in transfected cells; host or cells: NIH-3T3 fibroblasts, bi-directional pBI-CMV1 plasmid
- TEST METHOD NOTES: BRET sensor screen for disruption of 14-3-3ζ-Rluc8:BAD-112-136F-mCitrine in living NIH-3T3 cells
- Type: cell-based, murine
- TEST CONDITIONS: NIH3T3, 3 h, NIH-3T3 expressing BRET sensor; 20 µM, 3 h; read-out: BRET reduction on NIH-3T3
Where a name gives a salt, the structure may show the parent alone.
Answers are plain numbers, in %.

Here is how some compounds turned out for inhibition at 20 µM.
INSERT INTO assay_data (compound, experimental_system, quantitative_readout) VALUES
  ('C#C[C@]1(O)CC[C@H]2[C@@H]3CCC4=CCCC[C@@H]4[C@H]3C(=C)C[C@@]21CC', '14-3-3ζ:BAD-112-136F interactions (Homo sapiens)', 40.6),
  ('CCOC(=O)C1=C(C)NC(C)=C(C(=O)OC)C1c1cccc(Cl)c1Cl (centres unmarked)', '14-3-3ζ:BAD-112-136F interactions (Homo sapiens)', 27.6);

Go through the items and report each one's inhibition at 20 µM.
1. CN(C)CCCN1c2ccccc2CCc2ccc(Cl)cc21 [Clomipramine HCl]
2. CC(C)(O)c1ccccc1CC[C@@H](SCC1(CC(=O)O)CC1)c1cccc(/C=C/c2ccc3ccc(Cl)cc3n2)c1 [Montelukast Sodium]
3. CN1CCN(c2ccc(C(=O)Nc3n[nH]c4ccc(Cc5cc(F)cc(F)c5)cc34)c(NC3CCOCC3)c2)CC1
4. CCOC(=O)C1=C(C)NC(C)=C(C(=O)OCC)C1c1ccccc1/C=C/C(=O)OC(C)(C)C
5. Clc1ccccc1C(c1ccccc1)(c1ccccc1)n1ccnc1
6. COc1cc(C(=O)O)ccc1NC(=O)[C@@H]1N[C@@H](CC(C)(C)C)[C@](C#N)(c2ccc(Cl)cc2F)[C@H]1c1cccc(Cl)c1F

1: 27; 2: 30.9; 3: 56.8; 4: 27.1; 5: 30.1; 6: 41.6

* * *

- System: HT-29 cells
- TEST METHOD NOTES: Hoechst/propidium iodide cell death assay in HT-29
- Type: cell-based, human
- TEST CONDITIONS: Homo sapiens, HT-29, 48 h, HT-29; 48h; 20 μM; read-out: Percentage of cell death % 48h, HT-29
MEASURED PARAMETER: cytotoxicity at 20 µM (%)
Numbers only, in %.

INSERT INTO assay_data (molecule, units_text, quantitative_readout) VALUES
  ('CO/N=C1\C[C@]2(C[C@@H]3C[C@@H](C/C=C(\C)C[C@@H](C)/C=C/C=C4\CO[C@@H]5[C@H](O)C(C)=C[C@@H](C(=O)O3)[C@]45O)O2)O[C@H](/C(C)=C/C(C)C)[C@H]1C [Moxidectin]', '%', 78.4),
  ('C=C1/C(=C\C=C2/CCC[C@]3(C)[C@@H]([C@H](C)CCCC(C)(C)O)CC[C@@H]23)C[C@@H](O)C[C@@H]1O [Calcitriol]', '%', 0.982),
  ('CC(C)OC(=O)CCC/C=C\C[C@@H]1[C@@H](CC[C@@H](O)CCc2ccccc2)[C@H](O)C[C@@H]1O [Latanoprost]', '%', 1.45),
  ('Clc1ccc(C(Cn2ccnc2)OCc2ccc(Sc3ccccc3)cc2)c(Cl)c1 (stereo not drawn) [Fenticonazole Nitrate]', '%', 1.58),
  ('CC(C)(C)C#Cc1cc(N(C(=O)[C@H]2CC[C@H](C)CC2)[C@H]2CC[C@H](O)CC2)c(C(=O)O)s1 [VX-222 (VCH-222, Lomibuvir), Lomibuvir]', '%', 78.5);

Go through the items and report each one's cytotoxicity at 20 µM.
1. COc1cc2nccc(Oc3ccc(NC(=O)Nc4cc(C)on4)c(Cl)c3)c2cc1OC [Tivozanib (AV-951), Tivozanib]
2. Clc1ccc(CSC(Cn2ccnc2)c2ccc(Cl)cc2Cl)cc1 (stereo not drawn) [Sulconazole Nitrate]
3. CCc1c(Cl)c(O)c(Cl)c(O)c1C(=O)O[C@H]1[C@H](O)[C@H](OC)[C@H](OC/C2=C\C=C\C[C@H](O)/C(C)=C/[C@H](CC)[C@@H](O[C@@H]3OC(C)(C)[C@@H](OC(=O)C(C)C)[C@H](O)[C@@H]3O)/C(C)=C/C(C)=C/C[C@@H]([C@@H](C)O)OC2=O)O[C@@H]1C [Fidaxomicin]

1. 23
2. 12.2
3. 52.8

Find the measured cytotoxicity at 20 µM of Clc1ccc(CCC(Cn2ccnc2)Sc2c(Cl)cccc2Cl)cc1 (stereo not drawn) [Butoconazole nitrate] with HT-29 cells as test system. 3.36

* * *

- EXPERIMENTAL SYSTEM: 14-3-3ζ:BAD-112-136F interactions (Homo sapiens)
- Construct: expressed in transfected cells; host or cells: NIH-3T3 fibroblasts, bi-directional pBI-CMV1 plasmid
- Sequence (P63104 1-245): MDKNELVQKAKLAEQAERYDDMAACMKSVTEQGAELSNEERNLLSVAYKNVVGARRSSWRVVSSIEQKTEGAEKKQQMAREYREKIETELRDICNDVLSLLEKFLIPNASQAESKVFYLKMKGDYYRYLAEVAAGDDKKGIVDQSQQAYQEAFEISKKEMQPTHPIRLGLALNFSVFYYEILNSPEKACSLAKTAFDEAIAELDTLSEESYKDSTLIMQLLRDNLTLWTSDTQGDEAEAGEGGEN
- TEST METHOD NOTES: BRET sensor screen for disruption of 14-3-3ζ-Rluc8:BAD-112-136F-mCitrine in living NIH-3T3 cells
- Type: cell-based, murine
- Design: dose or concentration left out as unconfirmed
- TEST CONDITIONS: NIH3T3, 3 h, NIH-3T3 cells; hits from the primary screen; read-out: BRET reduction on NIH-3T3
MEASURED PARAMETER: inhibition (%)
Give bare numbers, in %.

Go through the items and report each one's inhibition.
1. Cc1cc(Nc2cc(CN3CCOCC3)c3nc(C)c(Cc4ccc(Cl)cc4F)n3n2)n[nH]1 [LY2784544]
2. CC1(C)Cc2c(-c3ccccc3)c(-c3ccc(Cl)cc3)c(CC(=O)O)n2C1 [Licofelone]
3. CCCSc1nc(N[C@@H]2C[C@H]2c2ccc(F)c(F)c2)c2nnn([C@@H]3C[C@H](OCCO)[C@@H](O)[C@H]3O)c2n1 [Ticagrelor]
4. Clc1ccc(COC(Cn2ccnc2)c2ccc(Cl)cc2Cl)cc1 (stereo not shown) [Econazole nitrate]

1: 36.5; 2: 33; 3: 25.6; 4: 48.3

* * *

- Tested on: Caco-2 cells
- Type: cell-based
- TEST CONDITIONS: Caco-2; 48h; 20 μM
Numbered stars: 1 amine (or outer) side, 2 acyl side, 3 side chain; on linkers, the order of the positions; unused ones are H or OH. Bridge positions count the residues as written; N and C are the ends. Square brackets hold non-standard residues; d marks the D form. Peptide text beside a SMILES is read from it. * marks the point of attachment. pTerphenylCO(4''-OnC5H11) = CCCCCOc1ccc(-c2ccc(-c3ccc(C(=O)*)cc3)cc2)cc1; Orn(4R-OH,5R-OH) = O=C([C@H](C[C@@H](O)[C@@H](O)N[*:3])N[*:1])[*:2]; hTyr(3S-OH,4S-OH) = N[C@H](C(=O)O)[C@H](O)[C@@H](O)c1ccc(O)cc1; Pro(3S-OH,4S-Me) = C[C@H]1CN[C@H](C(=O)O)[C@H]1O; Hyp = O=C(O)[C@@H]1C[C@@H](O)CN1
Quick rule for you: Percentage of cell death % 48h, Caco-2 at 20% or higher means Satisfied, lower means Not satisfied.

INSERT INTO results (molecule, classification) VALUES
  ('C[C@@H](NCCCc1cccc(C(F)(F)F)c1)c1cccc2ccccc12 [Cinacalcet]', 'Satisfied'),
  ('C=CCc1ccc(O)c(-c2ccc(O)c(CC=C)c2)c1 [Honokiol]', 'Not satisfied'),
  ('Clc1ccc(CO/N=C(\Cn2ccnc2)c2ccc(Cl)cc2Cl)c(Cl)c1.O=[N+]([O-])O [Oxiconazole (nitrate)]', 'Not satisfied');

Determine whether measured Percentage of cell death % 48h, Caco-2 meets or exceeds 20% for C[C@H](CCC(=O)O)[C@H]1CC[C@H]2[C@@H]3CC[C@@H]4C[C@H](O)CC[C@]4(C)[C@H]3CC[C@]12C [Lithocholic Acid] Not satisfied

Determine whether measured Percentage of cell death % 48h, Caco-2 meets or exceeds 20% for CC(C)(C)C#Cc1cc(N(C(=O)[C@H]2CC[C@H](C)CC2)[C@H]2CC[C@H](O)CC2)c(C(=O)O)s1 [VX-222 (VCH-222, Lomibuvir), Lomibuvir] Satisfied

Determine whether measured Percentage of cell death % 48h, Caco-2 meets or exceeds 20% for CCCCCCCCCCCC[N+](C)(C)CCOc1ccccc1 [Domiphen Bromide] Satisfied

Determine whether measured Percentage of cell death % 48h, Caco-2 meets or exceeds 20% for Clc1ccc(C(Cn2ccnc2)OCc2c(Cl)cccc2Cl)c(Cl)c1 (stereo not shown) [Isoconazole nitrate] Not satisfied

Determine whether measured Percentage of cell death % 48h, Caco-2 meets or exceeds 20% for CCOC(=O)N1CCC(=C2c3ccc(Cl)cc3CCc3cccnc32)CC1 [Loratadine] Not satisfied

Determine whether measured Percentage of cell death % 48h, Caco-2 meets or exceeds 20% for CCCCCOc1ccc(-c2ccc(-c3ccc(C(=O)N[C@H]4C[C@@H](O)[C@@H](O)NC(=O)[C@@H]5[C@@H](O)[C@@H](C)CN5C(=O)[C@H]([C@@H](C)O)NC(=O)[C@H]([C@H](O)[C@@H](O)c5ccc(O)cc5)NC(=O)[C@@H]5C[C@@H](O)CN5C(=O)[C@H]([C@@H](C)O)NC4=O)cc3)cc2)cc1 [Anidulafungin] ({pTerphenylCO(4''-OnC5H11)}-[Orn(4R-OH,5R-OH)]T[Hyp][hTyr(3S-OH,4S-OH)]T[Pro(3S-OH,4S-Me)]; lactam 1-C) Not satisfied

Determine whether measured Percentage of cell death % 48h, Caco-2 meets or exceeds 20% for CC(C)Oc1ccc(-c2nc(-c3cccc4c3CC[C@@H]4NCCO)no2)cc1C#N [Ozanimod (RPC1063), Ozanimod] Not satisfied

Determine whether measured Percentage of cell death % 48h, Caco-2 meets or exceeds 20% for CC1=C(C(=O)OC(C)C)C(c2cccc([N+](=O)[O-])c2)C(C(=O)OC2CN(C(c3ccccc3)c3ccccc3)C2)=C(N)N1 (stereo not shown) [Azelnidipine] Not satisfied

Determine whether measured Percentage of cell death % 48h, Caco-2 meets or exceeds 20% for CCCCCCCCCCCCCCCC[n+]1ccccc1 [Cetylpyridinium Chloride] Satisfied

Determine whether measured Percentage of cell death % 48h, Caco-2 meets or exceeds 20% for O=C(NC1CCN(CCCCC2(C(=O)NCC(F)(F)F)c3ccccc3-c3ccccc32)CC1)c1ccccc1-c1ccc(C(F)(F)F)cc1 [Lomitapide] Satisfied
